// provenance: patent US20250186602A1

# SYSTEM: T1, hEva1-mouse Fc (human, UniProt O60487 27-154, limits assumed)
# T1 construct: SPR analyte; the '1' is probably the first concentration (1 nM); also called hEva1-mouse Fc1 (so in the source); not shown: mouse Fc
# T1 sequence: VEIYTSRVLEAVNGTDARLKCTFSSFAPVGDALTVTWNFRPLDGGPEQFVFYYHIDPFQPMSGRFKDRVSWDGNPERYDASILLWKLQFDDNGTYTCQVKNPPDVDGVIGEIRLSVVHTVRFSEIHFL
# ASSAY_DETAILS: SPR (BiaCore T200), single-cycle kinetics; antibody captured by anti-human IgG on CM5 chip, hEva1-mouse Fc as analyte
I'd appreciate it if you could supply koff values for the items below.
Note: unit s⁻¹ is implicit; provide only the numeric part.

I have this binder here, humanized B2E5-48 antibody H2-L2 (antibody, human IgG1, V domains shown, Human IgG1 heavy chain and human kappa light chain vectors; made in HEK293T cells; also called B2E5-H2-L2) VH: QVQLVQSGAEVKKPGASVKVSCKASGYTFTNYWMHWVRQAPGQGLEWMGEINPTNGGTDYNEKFQGRVTMTVDKSTSTAYMELSSLRSEDTAVYYCTIYTTALDYWGQGTLVTVSS VL: EIVLTQSPATLSLSPGERATLSCRASSSVGYMYWYQQKPGQAPRPLIYVTSNRATGIPARFSGSGSGTDYTLTISSLEPEDFAVYYCQQWSSNPPTFGQGTKLEIK , and I need its recorded koff.
0.0092

I have this binder here, humanized B2E5-48 antibody H1-L4 (antibody, human IgG1, V domains shown, Human IgG1 heavy chain and human kappa light chain vectors; made in HEK293T cells) VH: QVQLVQSGAEVKKPGASVKVSCKASGYTFTNYWMHWVRQAPGQGLEWIGEINPTNGGTDYNEKFQGRVTLTVDKSSSTAYMELSSLRSEDTAVYYCTIYTTALDYWGQGTLVTVSS VL: DIQLTQSPSFLSASVGDRVTITCRASSSVGYMYWYQQKPGKAPKPLIYVTSNLASGVPSRFSGSGSGTEYTLTISSLQPEDFATYYCQQWSSNPPTFGQGTKLEIK , and I need its recorded koff.
0.00931

I have this binder here, humanized B2E5-48 antibody H3-L4 (antibody, human IgG1, V domains shown, Human IgG1 heavy chain and human kappa light chain vectors; made in HEK293T cells) VH: QVQLVQSGSELKKPGASVKVSCKASGYTFTNYWMHWVRQAPGQGLEWIGEINPTNGGTDYNEGFTGRFVLSVDKSSSTAYLQISSLKAEDTAVYYCTIYTTALDYWGQGTLVTVSS VL: DIQLTQSPSFLSASVGDRVTITCRASSSVGYMYWYQQKPGKAPKPLIYVTSNLASGVPSRFSGSGSGTEYTLTISSLQPEDFATYYCQQWSSNPPTFGQGTKLEIK , and I need its recorded koff.
0.0138

I have this binder here, humanized B2E5-48 antibody H4-L2 (antibody, human IgG1, V domains shown, Human IgG1 heavy chain and human kappa light chain vectors; made in HEK293T cells) VH: QVQLVQSGSELKKPGASVKVSCKASGYTFTNYWMHWVRQAPGQGLEWMGEINPTNGGTDYNEGFTGRFVFSVDKSVSTAYLQISSLKAEDTAVYYCTIYTTALDYWGQGTLVTVSS VL: EIVLTQSPATLSLSPGERATLSCRASSSVGYMYWYQQKPGQAPRPLIYVTSNRATGIPARFSGSGSGTDYTLTISSLEPEDFAVYYCQQWSSNPPTFGQGTKLEIK , and I need its recorded koff.
0.0146

I have this binder here, humanized B2E5-48 antibody H3-L2 (antibody, human IgG1, V domains shown, Human IgG1 heavy chain and human kappa light chain vectors; made in HEK293T cells) VH: QVQLVQSGSELKKPGASVKVSCKASGYTFTNYWMHWVRQAPGQGLEWIGEINPTNGGTDYNEGFTGRFVLSVDKSSSTAYLQISSLKAEDTAVYYCTIYTTALDYWGQGTLVTVSS VL: EIVLTQSPATLSLSPGERATLSCRASSSVGYMYWYQQKPGQAPRPLIYVTSNRATGIPARFSGSGSGTDYTLTISSLEPEDFAVYYCQQWSSNPPTFGQGTKLEIK , and I need its recorded koff.
0.0132
